target: Trace amine-associated receptor 1 (Homo sapiens, UniProt Q96RJ0); assay: Agonist activity at human TAAR1 receptor expressed in HEK293T cells cotransfected with beta-2 receptor assessed as cAMP production by BRET assay
Sequence (Q96RJ0 whole entry): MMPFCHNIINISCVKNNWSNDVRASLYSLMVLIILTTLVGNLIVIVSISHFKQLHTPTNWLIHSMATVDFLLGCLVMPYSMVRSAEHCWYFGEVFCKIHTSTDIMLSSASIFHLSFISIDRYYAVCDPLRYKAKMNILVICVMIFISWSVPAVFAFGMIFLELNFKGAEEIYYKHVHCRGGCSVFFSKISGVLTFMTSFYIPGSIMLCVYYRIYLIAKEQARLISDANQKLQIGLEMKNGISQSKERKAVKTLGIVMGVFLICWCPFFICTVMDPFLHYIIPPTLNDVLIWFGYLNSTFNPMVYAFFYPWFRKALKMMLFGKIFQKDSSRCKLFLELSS
// reported pEC50 per item
Reminder that pEC50 means the negative base-10 logarithm of the concentration expressed in mol/L.

Examples from the recorded data:
[[record]]
compound = "Cn1c(C2CCCN2)nc2ccccc21 (centres undefined)"
result_number = 4.74

[[record]]
compound = "CC(C)n1c(C2CCCN2)nc2ccccc21 (centres undefined)"
result_number = 4.92

[[record]]
compound = "N=C(N)N/N=C/c1ccccc1"
result_number = 6.77

[[record]]
compound = "COc1cccc(/C=N/N=C(N)N)c1"
result_number = 5.91


Lab note: measured pEC50 of "NCCc1ccccc1" was 6.96

Lab note: measured pEC50 of "Cc1cccc(CCN(C)C[C@H](O)c2ccccc2)c1" was 4.29

Lab note: measured pEC50 of "N=C(N)N/N=C/c1c(Cl)cccc1Cl" was 7.05
